Tested on: NCIH460
Test: 11×7 synergism hit rate
Type: cell-based
Settings: NSCLC NCIH460, combination with SR16388
readout: % Hit rate (%)
Answers are plain numbers, in %.

Use the examples below as a reference point.
CC(=O)O[C@H]1C(=O)[C@@]2(C)[C@H]([C@H](OC(=O)c3ccccc3)[C@]3(O)C[C@H](OC(=O)[C@H](O)[C@@H](NC(=O)c4ccccc4)c4ccccc4)C(C)=C1C3(C)C)[C@]1(OC(C)=O)CO[C@@H]1C[C@@H]2O [Paclitaxel]	35
CC(=O)O[C@@]12CO[C@@H]1C[C@H](O)[C@@]1(C)C(=O)[C@H](O)C3=C(C)[C@@H](OC(=O)[C@H](O)[C@@H](NC(=O)OC(C)(C)C)c4ccccc4)C[C@@](O)([C@@H](OC(=O)c4ccccc4)[C@H]21)C3(C)C [Docetaxel]	31
CC[C@]1(O)C[C@H]2CN(CCc3c([nH]c4ccccc34)[C@@](C(=O)OC)(c3cc4c(cc3OC)N(C=O)[C@H]3[C@@](O)(C(=O)OC)[C@H](OC(C)=O)[C@]5(CC)C=CCN6CC[C@]43[C@@H]65)C2)C1 [Vincristine]	19

Proceeding to the next compound to report its % Hit rate.
Query: Endpoint output: % Hit rate of CC[C@]1(O)C[C@@H]2CN(CCc3c([nH]c4ccccc34)[C@@](C(=O)OC)(c3cc4c(cc3OC)N(C)[C@H]3[C@@](O)(C(=O)OC)[C@H](OC(C)=O)[C@]5(CC)C=CCN6CC[C@]43[C@@H]65)C2)C1 [Vinblastine] . Value?
Result: 16
